Each entry below carries its recorded solubility.
Experiment: Intrinsic solubility of the compound in water
Conditions: buffer
The response must be a number in µg/mL with no trailing unit.

Answered cases to consult:
MOLECULE	MEASUREMENT_KIND	ASSAY_VALUE
O=C(O)c1cc(/N=N/c2ccc(S(=O)(=O)Nc3ccccn3)cc2)ccc1O [SULFASALAZINE]	solubility	0.29
CN(C)CCCN1c2ccccc2Sc2ccc(Cl)cc21 [CHLORPROMAZINE]	solubility	2.7
Cc1cccc(CN2CCN(C(c3ccccc3)c3ccc(Cl)cc3)CC2)c1 (centres undefined) [MECLIZINE]	solubility	0.13

molecule CNC(=C[N+](=O)[O-])NCCSCc1ccc(CN(C)C)o1 [RANITIDINE] , solubility observed: 990

molecule CNCCCC12CCC(c3ccccc31)c1ccccc12 [MAPROTILINE] , solubility observed: 5.6

molecule Cc1ccc(Cl)c(Nc2ccccc2C(=O)O)c1Cl [MECLOFENAMIC ACID] , solubility observed: 0.16

molecule CN[C@H]1CC[C@@H](c2ccc(Cl)c(Cl)c2)c2ccccc21 [SERTRALINE] , solubility observed: 4.5

###

Assay: Intrinsic solubility of the compound in water
Conditions: water
Rule: 1 for solubility not less than 60 µg/mL, -1 for anything less.

MOLECULE	ASSIGNED_CATEGORY
CC(C(=O)O)c1ccc2c(c1)[nH]c1ccc(Cl)cc12 (stereo unspecified)	-1
CC(C)NCC(O)COc1cccc2[nH]ccc12 (stereo unspecified)	-1
CCCN(CCC)S(=O)(=O)c1ccc(C(=O)O)cc1	-1

State whether the measured solubility reaches 60 µg/mL, counting equality as reaching it, for "C[C@@H]1CN(c2c(F)c(N)c3c(=O)c(C(=O)O)cn(C4CC4)c3c2F)C[C@H](C)N1"
1

State whether the measured solubility reaches 60 µg/mL, counting equality as reaching it, for "O=c1n(CCCN2CCN(c3cccc(Cl)c3)CC2)nc2ccccn12"
1

State whether the measured solubility reaches 60 µg/mL, counting equality as reaching it, for "CCn1cc(C(=O)O)c(=O)c2cc(F)c(N3CCNCC3)cc21"
1

State whether the measured solubility reaches 60 µg/mL, counting equality as reaching it, for "CCc1nc(N)nc(N)c1-c1ccc(Cl)cc1"
-1

State whether the measured solubility reaches 60 µg/mL, counting equality as reaching it, for "C#CCN(C)[C@H](C)Cc1ccccc1"
1

State whether the measured solubility reaches 60 µg/mL, counting equality as reaching it, for "c1ccc(Cn2ccnc2)cc1"
1

State whether the measured solubility reaches 60 µg/mL, counting equality as reaching it, for CCn1cc(C(=O)O)c(=O)c2cc(F)c(N3CCNC(C)C3)c(F)c21 (stereo unspecified)
1

###

Assay: Intrinsic solubility of the compound in water
Details: water
Each entry below carries its recorded solubility.
The response must be a number in µg/mL with no trailing unit.

MOLECULE	solubility / µg/mL
CCCCNc1ccc(C(=O)OCCN(C)C)cc1	258
CCCC(=O)Nc1ccc(OCC(O)CNC(C)C)c(C(C)=O)c1 (centres undefined)	711
Nc1ccc(/N=N/c2ccccc2)c(N)n1	13.7

Shifting focus to the molecule that follows.
molecule NS(=O)(=O)c1cc2c(cc1C(F)(F)F)NCNS2(=O)=O [HYDROFLUMETHIAZIDE] , solubility observed: 360

###

Experiment: Intrinsic solubility of the compound in water
Details: buffer
MEASUREMENT_KIND: solubility (µg/mL)
The response must be a number in µg/mL with no trailing unit.

Answered cases to consult:
COMPOUND	MEASUREMENT_KIND	ASSAY_VALUE
NC(N)=Nc1nc(CSCCC(N)=NS(N)(=O)=O)cs1	solubility	760
O=C(O)c1ccccc1O	solubility	1620

compound CC1CCc2cc(F)cc3c(=O)c(C(=O)O)cn1c23 (configuration not stated) , solubility observed: 48

compound "O=C1CN(/N=C/c2ccc([N+](=O)[O-])o2)C(=O)N1" , solubility observed: 137

###

Assay: Intrinsic solubility of the compound in water
Settings: water
MEASUREMENT_KIND: solubility (µg/mL)
The response must be a number in µg/mL with no trailing unit.

COMPOUND	solubility, µg/mL
CCN(CC)CCOC(=O)c1ccc(N)cc1	4500
OCCN(CCO)c1nc(N2CCCCC2)c2nc(N(CCO)CCO)nc(N3CCCCC3)c2n1	3.46
O=C(O)c1cc(Br)c(O)cc1O	559

compound "CCCCOc1cc(C(=O)NCCN(CC)CC)c2ccccc2n1" , solubility observed: 14

compound Clc1ccc(COC(Cn2ccnc2)c2ccc(Cl)cc2Cl)c(Cl)c1 (stereo unspecified) , solubility observed: 3.5

compound "CCOC(=O)c1ccc(N)cc1" , solubility observed: 780

compound CC1=NS(=O)(=O)c2cc(Cl)ccc2N1 [DIAZOXIDE] , solubility observed: 100

compound CC(CN(C)C)CN1c2ccccc2CCc2ccccc21 (stereo unspecified) , solubility observed: 4.8

compound "CCn1cc(C(=O)O)c(=O)c2ccc(C)nc21" , solubility observed: 57

###

Test: Intrinsic solubility of the compound in water
Settings: buffer
MEASUREMENT_KIND: solubility

COMPOUND	MEASUREMENT_KIND	ASSAY_VALUE
CN1CCN(c2c(F)cc3c(=O)c(C(=O)O)cn4c3c2OCN4C)CC1	solubility	Soluble
O=C(O)C(O)c1ccccc1Cl (stereo not drawn)	solubility	Soluble
O=c1[nH]cc(F)c(=O)[nH]1	solubility	Soluble

###

Assay: Intrinsic solubility of the compound in water
Details: water
The class of a record is decided solely by its measured solubility; consult band 1: < 20 µg/mL; band 2: ≥ 20 µg/mL and < 200 µg/mL; band 3: ≥ 200 µg/mL

Tag the class for "O=C(O)c1cc(-c2ccc(F)cc2F)ccc1O"
band 1

Tag the class for "Cc1nnc(NS(=O)(=O)c2ccc(N)cc2)s1"
band 3

Tag the class for C=CCc1ccccc1OCC(O)CNC(C)C (configuration not stated)
band 3

Tag the class for "O=C1NC(=O)C(c2ccccc2)(c2ccccc2)N1"
band 2

Tag the class for CC(C(=O)O)c1ccc(-c2ccccc2)c(F)c1 (configuration not stated)
band 1

Tag the class for "O=C(O)c1ccc(O)cc1"
band 3

###

Assay: Intrinsic solubility of the compound in water
Conditions: water
MEASUREMENT_KIND: solubility (µg/mL)
The response must be a number in µg/mL with no trailing unit.

Answered cases to consult:
MOLECULE	MEASUREMENT_KIND	ENDPOINT_UNIT	ASSAY_VALUE
CN1CCN(C2=Nc3cc(Cl)ccc3Nc3ccccc32)CC1	solubility	µg/mL	189
CC(=O)OCC1=C(C(=O)O)N2C(=O)[C@@H](NC(=O)Cc3cccs3)[C@H]2SC1	solubility	µg/mL	457
CNCCCN1c2ccccc2CCc2ccccc21	solubility	µg/mL	63
Cc1cccc(Nc2ccccc2C(=O)O)c1C	solubility	µg/mL	0.04
CCCCNC(=O)NS(=O)(=O)c1ccc(C)cc1 [TOLBUTAMIDE]	solubility	µg/mL	93

molecule "O=C(O)c1cn(-c2ccc(F)cc2)c2cc(N3CCNCC3)c(F)cc2c1=O" , solubility observed: 280

molecule NS(=O)(=O)c1cc2c(cc1Cl)N=C(CSCc1ccccc1)NS2(=O)=O [BENZTHIAZIDE] , solubility observed: 6.4

molecule "CN(C)CCC=C1c2ccccc2CCc2ccccc21" , solubility observed: 7.8

###

Each entry below carries its recorded solubility.
Assay: Intrinsic solubility of the compound in water
Settings: water

Answered cases to consult:
COMPOUND	MEASUREMENT_KIND	ASSAY_VALUE
COc1ccc(Cc2nccc3cc(OC)c(OC)cc23)cc1OC	solubility	46 µg/mL
Nc1nc2nc[nH]c2c(=O)[nH]1	solubility	5.6 µg/mL

compound "Cc1ccc(C(=O)c2ccc(CC(=O)O)n2C)cc1" , solubility observed: 21 µg/mL
